Attribution: patent US20180168208A1

- measurement_target: T1R1/T1R3 receptor (Felis catus, UniProt E3UMS2)
- protocol_description: cell-based
- Assay type: cell-based
- condition: EC50 - with IMP (0.2 mM), with 0.2 mM IMP
Examples of molecules with documented EC50 follow.
Provide the reading as a plain figure in µM.

Here are 2 molecules together with their reported answers.
> print(dat)
                 structure.string                        measurement.target  numeric.value
1  CCCC(CCC)NC(=O)c1ccc2c(c1)OCO2  T1R1/T1R3 receptor (Felis catus, UniProt E3UMS2)             90
2  CCC(CC)NC(=O)/C=C/c1ccc(OC)cc1  T1R1/T1R3 receptor (Felis catus, UniProt E3UMS2)            150

// below: EC50 requested for another molecule
Input line: Tell me the measured EC50 of N[C@@H](Cc1ccccc1)C(=O)O , please.
Output line: 3400

---

- measurement_target: T1R1/T1R3 receptor (Felis catus, UniProt E3UMS2)
- protocol_description: cell-based
- Assay type: cell-based
- condition: compound alone in buffer; Table 17; read-out: EC50 + buffer (alone)
pEC50: −log10 of the molar value.
endpoint: pEC50

Before answering, review these 5 worked examples.
> print(dat)
                                   compound  endpoint  result
1  O=C(Nc1ccccc1Br)N[C@@H]1c2ccccc2C[C@@H]1O (stereo in doubt)     pEC50  < 2.52
2  CCCC(C)NC(=O)c1ccc(OC)c(C)c1 (stereo not drawn)     pEC50    3.40
3  COc1ccc(/C=C/C(=O)NC2CCCCC2C)cc1 (stereo not drawn)     pEC50  < 2.00
4  CCC(CC)NC(=O)c1ccc(OC)c(OC)c1 [3,4-dimethoxy-N-(pentan-3-yl)benzamide]     pEC50  < 2.00
5                  CCC(CC)NC(=O)c1ccc(Br)o1     pEC50  < 2.52

Kindly review the next compound as well.
Input line: Entry under review: CCC(CC)NC(=O)c1ccc(C)c(C)c1 [3,4-dimethyl-N-(pentan-3-yl)benzamide] . Reported pEC50?
Output line: < 2.52

---

Thres +Alanine overview
- measurement_target: T1R1/T1R3 receptor (Felis catus)
- protocol_description: cell-based
- Format: cell-based
- condition: +Alanine (20 mM); Table 18
Number plus unit, in that order.

> print(dat)
                                   compound  result
1  CCC(CC)NC(=O)c1ccc(OC)c(OC)c1 [3,4-dimethoxy-N-(pentan-3-yl)benzamide]  0.3 mM
2  COc1ccc(C(=O)NC(C)c2ccccc2)cc1C (stereo not shown)    3 mM
3  CC1CCCC(NC(=O)c2ccc3c(c2)OCO3)C1C (stereo not shown)    3 mM
4             CCC(CC)NC(=O)c1ccc2c(c1)OCCO2  0.3 mM
5                  CCC(CC)NC(=O)c1ccc(Br)o1    1 mM
6           O=C(NCCc1ccccc1)C(=O)NCc1cccnc1    1 mM
7  CCC(CC)NC(=O)c1ccc(C)c(C)c1 [3,4-dimethyl-N-(pentan-3-yl)benzamide]    3 mM
8  COC(=O)C(NC(=O)/C=C/c1cccs1)C(C)C (stereo not shown)   10 mM

Input line: Form field: Thres +Alanine recorded for CCCC(C)NC(=O)c1ccc(OC)c(C)c1 (stereo not shown) with T1R1/T1R3 receptor (Felis catus) (enter value)
Output line: 0.050 mM

Input line: # returns recorded Thres +Alanine (system: T1R1/T1R3 receptor (Felis catus)) for COc1ccc(/C=C/C(=O)NC2CCCCC2C)cc1 (stereo not shown)
Output line: 3 mM

Input line: Lab note: need Thres +Alanine for CCC(CC)NC(=O)/C=C/c1ccc(OC)cc1 on T1R1/T1R3 receptor (Felis catus), anyone have it?
Output line: 0.148 mM

Input line: Notebook: pull reported Thres +Alanine for T1R1/T1R3 receptor (Felis catus), entry O=C(CN1C(=O)C(=O)N(Cc2ccccc2)C1=O)c1ccccc1
Output line: 1 mM

Input line: Lab request: please report Thres +Alanine under test system T1R1/T1R3 receptor (Felis catus) for O=C(Nc1ccccc1Br)N[C@@H]1c2ccccc2C[C@@H]1O (stereo in doubt)
Output line: 3 mM

---

# EC50 per record follows
- measurement_target: T1R1/T1R3 receptor (Felis catus, UniProt E3UMS2)
- protocol_description: cell-based
- condition: EC50 (mM), +IMP (0.2 mM), in the presence of 0.2 mM IMP
- Description: HEK293 cells that stably express T1R3 and inducibly express T1R1 were exposed to nucleotide derivatives alone to activate the umami receptor. Activation of the T1R1/T1R3 receptor was detected by a change in intracellular calcium levels using a calcium sensitive fluorescent dye. Cells that express T1R3 but not T1R1 were used as a control. A FLIPR® Tetra or a FlexStation® 3 was used for data capture. […]
Reply with just the number (in mM).

> print(dat)
                                   molecule                        measurement.target  unit.of.measure  numeric.value
1  O=C(NCCc1ccccc1)c1cccnc1 [N-phenethylnicotinamide]  T1R1/T1R3 receptor (Felis catus, UniProt E3UMS2)               mM           0.35
2  Nc1ccccc1C(=O)NCCc1ccccc1 [2-amino-N-phenethylbenzamide]  T1R1/T1R3 receptor (Felis catus, UniProt E3UMS2)               mM           0.14
3                         N[C@@H](CO)C(=O)O  T1R1/T1R3 receptor (Felis catus, UniProt E3UMS2)               mM           15.1

Input line: Would you kindly share the measured EC50 for O=C1CC(=O)N(Cc2ccccc2)C(=O)N1Cc1ccccc1 ?
Output line: 0.52

Input line: Form field: reported EC50 of O=C(NCCc1c[nH]c2ccccc12)c1cccnc1 [N-(2-(1H-indol-3-yl)ethyl)nicotinamide, N-(2-(1H-Indol-3-yl)ethyl)nicotinamide]
Output line: 0.05

---

- measurement_target: T1R1/T1R3 receptor (Felis catus, UniProt E3UMS2)
- protocol_description: cell-based
- condition: read-out: T1R1/T1R3 EC50 +0.2 mM IMP; +0.2 mM IMP
pEC50: −log10 of the molar value.
endpoint: pEC50

Input line: # pEC50 lookup, item O=P(O)(O)OP(=O)(O)OP(=O)(O)OC[C@H]1O[C@@H](n2cnc3c(Cl)ncnc32)[C@H](O)[C@@H]1O
Output line: < 4.52

---

- measurement_target: cat T1R1/T1R3 receptor (Felis catus)
- Sequence (A0ABI7Z2I4 171-420): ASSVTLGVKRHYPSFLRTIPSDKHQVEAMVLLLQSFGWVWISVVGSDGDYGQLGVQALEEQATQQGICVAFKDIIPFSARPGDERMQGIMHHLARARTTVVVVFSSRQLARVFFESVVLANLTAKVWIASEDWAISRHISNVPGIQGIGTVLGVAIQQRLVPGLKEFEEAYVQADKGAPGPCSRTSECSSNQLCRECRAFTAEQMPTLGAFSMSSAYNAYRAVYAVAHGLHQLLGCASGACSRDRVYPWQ
- Sequence (Q49KI5 with tags, fused parts or gaps E206Q/N523D/F654L partner): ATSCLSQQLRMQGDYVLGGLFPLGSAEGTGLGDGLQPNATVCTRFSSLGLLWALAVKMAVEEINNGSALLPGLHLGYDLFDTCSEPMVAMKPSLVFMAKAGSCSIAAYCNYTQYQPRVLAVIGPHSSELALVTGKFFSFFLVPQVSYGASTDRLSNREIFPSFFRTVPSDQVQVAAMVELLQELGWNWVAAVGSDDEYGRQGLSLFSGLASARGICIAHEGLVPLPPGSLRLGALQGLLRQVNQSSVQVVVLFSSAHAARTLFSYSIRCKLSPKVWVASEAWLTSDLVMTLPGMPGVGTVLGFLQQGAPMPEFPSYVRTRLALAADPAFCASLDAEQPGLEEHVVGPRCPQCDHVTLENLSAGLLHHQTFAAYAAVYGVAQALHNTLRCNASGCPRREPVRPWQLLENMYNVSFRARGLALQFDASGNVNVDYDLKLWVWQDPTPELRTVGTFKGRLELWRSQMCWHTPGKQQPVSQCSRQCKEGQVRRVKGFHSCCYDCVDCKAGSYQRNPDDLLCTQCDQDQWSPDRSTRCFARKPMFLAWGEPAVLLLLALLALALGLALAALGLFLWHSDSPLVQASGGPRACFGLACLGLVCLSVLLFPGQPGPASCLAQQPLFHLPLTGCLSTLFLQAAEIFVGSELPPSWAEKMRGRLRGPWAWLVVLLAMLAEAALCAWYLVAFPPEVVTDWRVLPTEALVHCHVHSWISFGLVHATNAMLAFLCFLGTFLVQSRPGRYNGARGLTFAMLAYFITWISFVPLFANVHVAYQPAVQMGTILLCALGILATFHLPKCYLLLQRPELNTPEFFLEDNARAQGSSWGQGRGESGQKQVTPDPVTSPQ
- protocol_description: cell-based
Structures can show the parent of a compound that is named as a salt.
endpoint: Max. resp. % of IMP

Example entries and their recorded answers appear below.
compound	Max. resp. % of IMP
Nc1ncnc2c1ncn2[C@H]1C[C@H](OP(=O)(O)O)[C@@H](COP(=O)(O)O)O1 [2′-deoxyadenosine-3′, 5′-O-bisphosphate]	76.4 % of IMP
O=c1[nH]cnc2c1ncn2C1OC(COP(=O)(O)OP(=O)(O)O)C(O)C1O (stereo not drawn) [Inosine 5′-diphosphate (IDP) sodium salt, inosine 5′-diphosphate (IDP) sodium salt]	33.3 % of IMP
Nc1nc2c(ncn2C2CC(OP(=O)(O)O)C(COP(=O)(O)O)O2)c(=O)[nH]1 (stereo not drawn) [2′-Deoxyguanosine-3′,5′-O-bisphosphate]	152.3 % of IMP
Nc1nc2c(ncn2[C@@H]2O[C@H](COP(O)(O)=S)[C@@H](O)[C@H]2O)c(=O)[nH]1 [Guanosine-5′-monophosphorothioate]	103.8 % of IMP

Input line: State the recorded Max. resp. % of IMP for this entry: CNc1ncnc2c1ncn2[C@H]1C[C@H](OP(=O)(O)O)[C@@H](COP(=O)(O)O)O1
Output line: 146.1 % of IMP

Input line: Which Max. resp. % of IMP reading was recorded for the compound CNc1ccccc1C(=O)OC1C[C@H](n2cnc3c(=O)[nH]c(N)nc32)O[C@@H]1COP(=O)(O)O (stereo partly drawn) ?
Output line: 23.7 % of IMP

---

- measurement_target: T1R1/T1R3 receptor (Felis catus, UniProt E3UMS2)
- protocol_description: cell-based
- Format: cell-based
- condition: +IMP (0.2 mM); Table 18
- Source text: HEK293 cells that stably express T1R3 and inducibly express T1R1 were exposed to transmembrane compounds alone or in combination with one or more amino acids and/or one or more nucleotides to activate the umami receptor. Activation of the T1R1/T1R3 receptor was detected by a change in intracellular calcium levels using a calcium sensitive fluorescent dye. Cells that express T1R3 but not T1R1 were used as a control. A FLIPR® Tetra or a FlexStation® 3 was used for data capture. […]
Known Max resp ΔF/F +IMP of a selection of molecules
Lab note: jot the number down without any unit.

> print(dat)
                                   molecule  numeric.value
1           O=C(NCCc1ccccc1)C(=O)NCc1cccnc1         0.7625
2  COc1cc(C(=O)NC(C(N)=O)c2ccccc2)cc(Cl)c1OC (stereo not shown)          0.415
3  CC1CCCC(NC(=O)c2ccc3c(c2)OCO3)C1C (stereo not shown)          1.175
4  COC(=O)C(NC(=O)/C=C/c1cccs1)C(C)C (stereo not shown)         0.7375

Input line: # value lookup — system T1R1/T1R3 receptor (Felis catus, UniProt E3UMS2), readout Max resp ΔF/F +IMP, item O=C(CN1C(=O)C(=O)N(Cc2ccccc2)C1=O)c1ccccc1
Output line: 1.140

Input line: Give Max resp ΔF/F +IMP (T1R1/T1R3 receptor (Felis catus, UniProt E3UMS2)) of the following molecule: CSc1ccc(-c2nnn(Cc3ccccn3)n2)cc1
Output line: 0.678

Input line: Record O=C(Nc1ccccc1Br)N[C@@H]1c2ccccc2C[C@@H]1O (stereo in doubt) : what is its Max resp ΔF/F +IMP with T1R1/T1R3 receptor (Felis catus, UniProt E3UMS2)?
Output line: 0.378
